Provenance of the data: ChEMBL document CHEMBL1201862

- Tested on: SNB-75
- assay_procedure: NCI tumour cell line growth inhibition, 48 h
Active and inactive are the calls of the source. Rule as the data show it: active = GI50 up to about 1.1 µM and inactive = higher.
readout: GI50

molecule | readout | result
COc1ccc(C2c3cc4c(cc3OC(N3CCOCC3)C2C)OCO4)cc1 (centres undefined) | GI50 | 35.9 µM (inactive)
CCCC1C(=O)CCc2c(OC)ccc(OC)c21 (centres undefined) | GI50 | 57.5 µM (inactive)
C=C1C(=O)O[C@@H]2CC(CO)=C([C@@H](C)CCCO)[C@@H](OC(=O)/C(C)=C\C)[C@H]12 | GI50 | 27.2 µM (inactive)
COc1cc(C)c(O)c(C(=O)O)c1 | GI50 | > 100 µM (inactive)
CCN(CC)CCCNC(=O)Cc1ccccc1Nc1c(Cl)cccc1Cl | GI50 | 8.75 µM (inactive)
O/N=N/c1ccc([SH2]c2ccc3ccccc3c2)cn1 | GI50 | 20.2 µM (inactive)
O=C(O)c1nnsc1-c1csnn1 | GI50 | > 100 µM (inactive)
O=C1c2ccccc2C(=O)c2c(NC(=O)C(Cl)CCl)cccc21 (centres undefined) | GI50 | 10.5 µM (inactive)
O=c1[nH]c(-c2ccccc2)nc2c1sc1nc3ccccc3n12 | GI50 | > 63.1 µM (inactive)
